Test system: NCI-H460
Assay Summary: NCI tumour cell line growth inhibition, 48 h
Active and inactive are the calls of the source. Rule as the data show it: active = GI50 up to about 1.1 µM and inactive = higher.
Give your call using only these classes: active, inactive

Enquiry: Recorded test call requested for CC1=C/C(O)CC(=O)Cc2nc(co2)C(=O)N2CCC=C2C(=O)OC(C(C)C)C(C)/C=C\C(=O)NC/C=C\1 (stereo not given)
Return: inactive

Enquiry: Identify the outcome logged in this assay for the compound shown: O=c1cc[nH]c2c1ccc1ncccc12
Return: inactive

Enquiry: Hi, sorry to bother you, what did the test record for CC(C)(CNC(=O)/C(Cl)=C(/Cl)C(=O)O)CNC(=O)/C(Cl)=C(/Cl)C(=O)O ?
Return: inactive

Enquiry: Hi, sorry to bother you, what did the test record for CN(C)CCNS(=O)(=O)c1ccc(N)cc1 ?
Return: inactive

Enquiry: Short answer needed: outcome of this test for O=C1/C(=C/c2ccc(Cl)cc2)Oc2ccccc21 ?
Return: inactive

Enquiry: Identify the outcome logged in this assay for the compound shown: O=c1c2ccccc2nc(-c2ccccc2)n1NC(=S)Nc1cccc(Cl)c1
Return: inactive

Enquiry: # lookup: test call for CC(=O)Nc1ccc(C(=O)NN2C(=O)C(Cl)C2c2cc(Br)ccc2O)cc1 (stereo not given)
Return: inactive

Enquiry: Which outcome was assigned to O/N=N/c1cnccn1 in this test?
Return: inactive

Enquiry: Would you mind telling me which call this test gave Cn1ccc(C(=O)NCCOCCNC(=O)c2ccn(C)c(=O)c2O)c(O)c1=O ?
Return: inactive

Enquiry: Please let me know the test result on file for C/C1=C/C[C@@H](/C(C)=C/c2csc(C)n2)OC(=O)C[C@H](O)C(C)(C)C(=O)[C@H](C)[C@@H](O)[C@@H](C)CCC1 [EPOTHILONE D] .
Return: active

Enquiry: Given COc1cc(CNC(=O)CCCCCCCCCCSC#N)ccc1O , state the outcome it received in this test.
Return: inactive

Enquiry: For this compound, state the assay outcome: CC1(C)C(=O)/C=C\C(=O)C(C)(C)C(=O)/C=C\C(=O)C(C)(C)C(=O)/C=C\C(=O)C(C)(C)C(=O)/C=C\C1=O
Return: inactive

Enquiry: Called result for COC(=O)/C=C\c1ccc2c(c1)CC1(C2)Cc2ccc(/C=C/C(=O)OC)cc2C1 (stereo not given)
Return: inactive

Enquiry: // return assay outcome for O=C(O)C(Cc1ccc2c(c1)CCC2)(Cc1ccc2c(c1)CCC2)C(=O)O
Return: inactive

Enquiry: How was O=C(OC12CC3CC(CC(C3)C1)C2)c1ccc(NCc2cc(O)ccc2O)cc1 classified in this test?
Return: inactive

Enquiry: Entry O=c1c2ccc(Br)cc2nc(-c2ccccc2)n1NC1OC(CO)C(O)C(O)C1O (stereo not given) : call = ?
Return: inactive

Enquiry: Recorded call for CCOC(=O)C(O)(CC1=NC(C(=O)OC)(C(=O)OC)C(c2cccc(C=O)c2)O1)C(=O)OCC (stereo not given) ?
Return: inactive

Enquiry: How was COc1ccc(CN2C[C@H]3[C@@H](CC(=O)O[C@H]3C)CC2=O)cc1 classified in this test?
Return: inactive

Enquiry: For this compound, state the assay outcome: COc1cc(OC)cc(Oc2nc3c(N)cc(C(F)(F)F)cc3nc2-c2ccccc2)c1
Return: inactive

Enquiry: What did this assay record as the result for C/C=C1/CC(C)C(C)(O)C(=O)OCC2C(O)CN3CCC(OC1=O)C23 (stereo not given) ?
Return: inactive
